Each entry below carries its measured IC50, system: JAK2 (Homo sapiens).
Sequence (O60674 whole entry): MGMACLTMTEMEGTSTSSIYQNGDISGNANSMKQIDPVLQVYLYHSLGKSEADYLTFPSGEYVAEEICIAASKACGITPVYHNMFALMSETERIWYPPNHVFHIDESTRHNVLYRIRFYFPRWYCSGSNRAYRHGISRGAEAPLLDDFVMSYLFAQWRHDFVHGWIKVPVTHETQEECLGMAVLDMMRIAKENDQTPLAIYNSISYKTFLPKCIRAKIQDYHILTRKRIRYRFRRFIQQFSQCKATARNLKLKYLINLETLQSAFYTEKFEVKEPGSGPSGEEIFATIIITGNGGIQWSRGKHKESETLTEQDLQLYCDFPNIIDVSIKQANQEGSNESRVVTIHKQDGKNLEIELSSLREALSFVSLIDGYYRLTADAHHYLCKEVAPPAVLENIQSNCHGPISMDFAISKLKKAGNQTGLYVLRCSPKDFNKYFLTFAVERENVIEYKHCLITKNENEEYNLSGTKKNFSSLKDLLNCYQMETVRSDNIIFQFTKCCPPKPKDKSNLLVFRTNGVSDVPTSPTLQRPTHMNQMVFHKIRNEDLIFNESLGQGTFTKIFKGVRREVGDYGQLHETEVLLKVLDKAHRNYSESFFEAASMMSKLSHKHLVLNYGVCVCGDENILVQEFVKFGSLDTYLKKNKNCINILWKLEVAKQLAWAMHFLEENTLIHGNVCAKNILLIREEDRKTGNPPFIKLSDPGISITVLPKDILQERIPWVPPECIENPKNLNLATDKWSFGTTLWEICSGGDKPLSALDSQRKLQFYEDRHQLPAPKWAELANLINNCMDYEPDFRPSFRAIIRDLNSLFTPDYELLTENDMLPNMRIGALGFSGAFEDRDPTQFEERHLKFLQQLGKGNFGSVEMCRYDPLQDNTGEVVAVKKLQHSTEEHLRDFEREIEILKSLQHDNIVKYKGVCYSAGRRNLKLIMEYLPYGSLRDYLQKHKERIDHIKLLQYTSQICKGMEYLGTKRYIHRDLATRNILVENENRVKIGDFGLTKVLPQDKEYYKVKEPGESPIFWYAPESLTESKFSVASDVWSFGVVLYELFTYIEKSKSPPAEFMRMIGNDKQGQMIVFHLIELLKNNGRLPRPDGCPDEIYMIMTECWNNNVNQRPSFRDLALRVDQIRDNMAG

compound: Cc1cnc2nc1NCCCCCNC(=O)c1ccc(cc1C(=O)Nc1ccccc1)-c1cnc(F)c(c1)N2 [Compound 42]
IC50: 1000 to 10000 nM
//
compound: Cc1cnc2nc1Nc1cccc(c1)CCCNC(=O)c1ccc(cc1C(=O)O)-c1cnc(F)c(c1)N2 [Compound 37]
IC50: 11 to 100 nM
//
compound: Cc1cnc2nc1Nc1cc(F)cc(c1)CCNC(=O)c1ccc(cc1S(C)(=O)=O)-c1cnc(F)c(c1)N2 [Compound 46]
IC50: < 10 nM
//
compound: Cc1cnc2nc1NCCCCCCCNC(=O)c1ccc(cc1F)-c1cnc(F)c(c1)N2 [Compound 12]
IC50: 101 to 1000 nM
//
compound: Cc1cnc2nc1Nc1cccc(c1)CCNC(=O)c1c(F)cc(cc1F)-c1cnc(F)c(c1)N2 [Compound 33]
IC50: 101 to 1000 nM
//
compound: COc1cc2cc(c1)Nc1nc(ncc1C)Nc1cc(cnc1F)-c1ccc(cc1)C(=O)NCC2 [Compound 47]
IC50: 101 to 1000 nM
//
compound: Cc1cnc2nc1Nc1cccc(c1)CCCNC(=O)c1ccc(cc1)-c1cnc(F)c(c1)N2 [Compound 17]
IC50: < 10 nM
//
compound: COC(=O)c1cc2ccc1C(=O)NCCCc1cccc(c1)Nc1nc(ncc1C)Nc1cc-2cnc1F [Compound 36]
IC50: < 10 nM
//
compound: Cc1cnc2nc1NCCCCCNC(=O)c1ccc(cc1Cl)-c1cnc(F)c(c1)N2 [Compound 14]
IC50: 101 to 1000 nM
//
compound: Cc1cnc2nc1NCCCCCNC(=O)c1ccc(c(S(C)(=O)=O)c1)-c1cnc(F)c(c1)N2 [Compound 26]
IC50: 1000 to 10000 nM
//
compound: O=C1NCCOCc2cccc(c2)Nc2nc(ncc2F)Nc2cc(cnc2F)-c2ccc1cc2 [Compound 16]
IC50: 11 to 100 nM
//
compound: Cc1cnc2nc1Nc1cc(ccc1F)CCNC(=O)c1ccc(cc1S(C)(=O)=O)-c1cnc(F)c(c1)N2 [Compound 29]
IC50: 101 to 1000 nM

Entry source: patent US20230167114A1
